Test System: Rho-associated protein kinase 2 (Homo sapiens)
Experimental Parameters: at 1 µM
Description: GSK_PKIS: ROCK2 mean inhibition at 1 uM [Nanosyn]
Criterion: inhibition meeting or surpassing 5%. Met: YES. Not met: NO.

Given the entry Fc1ccc(-c2cc(-c3c[nH]nc3-c3ccccn3)ccn2)cc1 , answer whether its inhibition meets or surpasses 5%.
YES

What would you report for COc1cc2c(cc1Nc1nc(Nc3ccsc3C(N)=O)c3cc[nH]c3n1)N(C(=O)CN(C)C)CCC2(C)C ?
YES

What would you report for COc1cc(/C=N/Nc2ncnc3[nH]ncc23)ccc1O ?
YES

What would you report for CCCN1CCC(c2ccc(Nc3nc(Nc4cc(F)ccc4C(N)=O)c4cc[nH]c4n3)c(OC)c2)CC1 ?
YES

What would you report for O=S(=O)(CCNCc1ccc(-c2ccc3ncnc(Nc4ccc(OCc5cccc(F)c5)c(Cl)c4)c3c2)o1)c1ccccc1 ?
YES

What would you report for COc1cc(N2CCN(C(C)C)CC2)ccc1Nc1nc(Nc2ccc(F)cc2C(N)=O)c2cc[nH]c2n1 ?
YES

What would you report for CS(=O)(=O)CCNCc1ccc(-c2ccc3ncnc(Nc4ccc(OCc5ccccc5)c(C(F)(F)F)c4)c3c2)o1 ?
NO

What would you report for COc1ccc(-c2cc3c(N)ncnc3o2)cc1 ?
NO

###

Test System: Tyrosine-protein kinase ABL1 (Homo sapiens) (UniProt P00519)
Sequence (P00519 whole entry): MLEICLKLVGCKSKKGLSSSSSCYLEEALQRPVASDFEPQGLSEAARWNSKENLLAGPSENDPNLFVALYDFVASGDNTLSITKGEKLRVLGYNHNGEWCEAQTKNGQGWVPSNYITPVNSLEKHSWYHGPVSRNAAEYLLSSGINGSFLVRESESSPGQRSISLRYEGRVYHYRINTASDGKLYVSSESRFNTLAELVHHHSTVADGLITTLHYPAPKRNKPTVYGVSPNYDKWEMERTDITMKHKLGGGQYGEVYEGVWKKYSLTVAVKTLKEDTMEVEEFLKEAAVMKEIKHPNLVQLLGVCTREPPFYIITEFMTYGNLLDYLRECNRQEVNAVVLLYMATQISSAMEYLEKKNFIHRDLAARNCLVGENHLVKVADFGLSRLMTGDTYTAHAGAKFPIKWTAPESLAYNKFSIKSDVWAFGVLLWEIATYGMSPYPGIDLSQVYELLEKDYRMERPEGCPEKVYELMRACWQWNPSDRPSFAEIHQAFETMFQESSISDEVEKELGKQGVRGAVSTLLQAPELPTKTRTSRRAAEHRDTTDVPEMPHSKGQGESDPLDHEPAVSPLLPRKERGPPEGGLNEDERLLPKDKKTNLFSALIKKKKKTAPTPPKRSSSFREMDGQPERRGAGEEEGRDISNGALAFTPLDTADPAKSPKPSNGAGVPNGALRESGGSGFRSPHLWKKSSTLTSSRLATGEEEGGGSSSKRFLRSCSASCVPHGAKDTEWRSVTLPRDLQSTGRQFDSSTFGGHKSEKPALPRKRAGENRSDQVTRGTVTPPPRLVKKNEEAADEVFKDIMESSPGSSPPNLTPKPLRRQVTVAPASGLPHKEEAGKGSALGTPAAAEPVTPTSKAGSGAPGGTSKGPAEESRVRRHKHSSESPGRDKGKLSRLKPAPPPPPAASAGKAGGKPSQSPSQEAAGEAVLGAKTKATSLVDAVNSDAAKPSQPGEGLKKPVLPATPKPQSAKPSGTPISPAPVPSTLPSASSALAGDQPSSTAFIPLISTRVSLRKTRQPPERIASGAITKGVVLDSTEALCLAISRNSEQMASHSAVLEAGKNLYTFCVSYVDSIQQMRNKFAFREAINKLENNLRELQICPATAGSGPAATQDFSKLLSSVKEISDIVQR
Experimental Parameters: at 0.1 µM
Description: GSK_PKIS: ABL1 mean inhibition at 0.1 uM [Nanosyn]
Criterion: inhibition meeting or surpassing 5%. Met: condition met. Not met: condition not met.

Given the entry COc1ccc(-c2oc3ncnc(N)c3c2-c2ccc(NC(=O)Nc3cc(C(F)(F)F)ccc3F)cc2)cc1 , answer whether its inhibition meets or surpasses 5%.
condition met

What would you report for NC(=O)c1sc(-n2cnc3ccc(C(F)(F)F)cc32)cc1OCc1ccccc1Br ?
condition not met

What would you report for Nc1nc(-c2ccc(F)cc2)c(-c2ccc3ncccc3n2)s1 ?
condition met

What would you report for CNC(=O)c1cc(-c2ccc(F)cc2)cc(-c2ccc(S(=O)(=O)N3CCCC3)cc2)c1N ?
condition not met

What would you report for N#Cc1c(NC(=O)CN2CCOCC2)sc2c1CCCC2 ?
condition met

What would you report for CCNC(=O)O[C@H]1CN[C@H](C#Cc2cc3ncnc(Nc4ccc(OCc5cccc(F)c5)c(Cl)c4)c3s2)C1 ?
condition not met

What would you report for COc1ccc2c(-c3ccnc(Nc4cccc(OC(F)(F)F)c4)n3)cnn2n1 ?
condition not met

What would you report for O=C(Nc1n[nH]c2cc(-c3ccc(F)cc3)ccc12)C1CC1 ?
condition met

What would you report for COc1cc(Nc2nccc(Nc3ccc4c(C)n[nH]c4c3)n2)cc(OC)c1OC ?
condition met

What would you report for CCn1c(-c2nonc2N)nc2c(C#CC(C)(C)O)nc(OC[C@H](N)c3ccccc3)cc21 ?
condition not met

What would you report for CCCN(CCS(C)(=O)=O)Cc1ccc(-c2ccc3ncnc(Nc4ccc(OCc5cccc(F)c5)c(Cl)c4)c3c2)o1 ?
condition met

What would you report for NS(=O)(=O)c1ccc(Nc2ncc(-c3ccccc3)o2)cc1 ?
condition met

What would you report for Clc1ccc(-c2nn3ncccc3c2-c2ccnc(Nc3ccccc3)n2)cc1 ?
condition not met

What would you report for c1cc(-c2cnn3nc(N4CCOCC4)ccc23)nc(NC2CC2)n1 ?
condition not met

What would you report for CCn1c(-c2nonc2N)nc2cnc(Oc3cccc(NC(=O)c4ccc(N(C)C)cc4)c3)cc21 ?
condition not met

What would you report for N#Cc1c(NC(=O)c2ccc(F)cc2)sc2c1CCCC2 ?
condition not met

What would you report for COc1ccc(-c2nn3ncccc3c2-c2ccnc(Nc3ccc4c(c3)OCCO4)n2)cc1 ?
condition not met

What would you report for COc1ccc2[nH]c3c4[nH]c5ccc(OC)cc5c4c4c(c3c2c1)C(=O)NC4=O ?
condition met

What would you report for COc1cc(/C=N/Nc2ncnc3[nH]ncc23)ccc1O ?
condition met

What would you report for Fc1ccc(-c2nn3ccccc3c2-c2ccncc2)cc1 ?
condition not met

What would you report for CN1CCC(n2cnc(-c3ccc(F)cc3)c2-c2ccnc(Nc3ccccc3)n2)CC1 ?
condition not met

What would you report for CS(=O)(=O)CCNCc1ccc(-c2ccc3ncnc(Nc4ccc(OCc5ccccc5)c(C(F)(F)F)c4)c3c2)o1 ?
condition met
